Biological target: Bromodomain-containing protein 8 (Homo sapiens)
Sequence (Q9H0E9 whole entry, the tested form may be a part): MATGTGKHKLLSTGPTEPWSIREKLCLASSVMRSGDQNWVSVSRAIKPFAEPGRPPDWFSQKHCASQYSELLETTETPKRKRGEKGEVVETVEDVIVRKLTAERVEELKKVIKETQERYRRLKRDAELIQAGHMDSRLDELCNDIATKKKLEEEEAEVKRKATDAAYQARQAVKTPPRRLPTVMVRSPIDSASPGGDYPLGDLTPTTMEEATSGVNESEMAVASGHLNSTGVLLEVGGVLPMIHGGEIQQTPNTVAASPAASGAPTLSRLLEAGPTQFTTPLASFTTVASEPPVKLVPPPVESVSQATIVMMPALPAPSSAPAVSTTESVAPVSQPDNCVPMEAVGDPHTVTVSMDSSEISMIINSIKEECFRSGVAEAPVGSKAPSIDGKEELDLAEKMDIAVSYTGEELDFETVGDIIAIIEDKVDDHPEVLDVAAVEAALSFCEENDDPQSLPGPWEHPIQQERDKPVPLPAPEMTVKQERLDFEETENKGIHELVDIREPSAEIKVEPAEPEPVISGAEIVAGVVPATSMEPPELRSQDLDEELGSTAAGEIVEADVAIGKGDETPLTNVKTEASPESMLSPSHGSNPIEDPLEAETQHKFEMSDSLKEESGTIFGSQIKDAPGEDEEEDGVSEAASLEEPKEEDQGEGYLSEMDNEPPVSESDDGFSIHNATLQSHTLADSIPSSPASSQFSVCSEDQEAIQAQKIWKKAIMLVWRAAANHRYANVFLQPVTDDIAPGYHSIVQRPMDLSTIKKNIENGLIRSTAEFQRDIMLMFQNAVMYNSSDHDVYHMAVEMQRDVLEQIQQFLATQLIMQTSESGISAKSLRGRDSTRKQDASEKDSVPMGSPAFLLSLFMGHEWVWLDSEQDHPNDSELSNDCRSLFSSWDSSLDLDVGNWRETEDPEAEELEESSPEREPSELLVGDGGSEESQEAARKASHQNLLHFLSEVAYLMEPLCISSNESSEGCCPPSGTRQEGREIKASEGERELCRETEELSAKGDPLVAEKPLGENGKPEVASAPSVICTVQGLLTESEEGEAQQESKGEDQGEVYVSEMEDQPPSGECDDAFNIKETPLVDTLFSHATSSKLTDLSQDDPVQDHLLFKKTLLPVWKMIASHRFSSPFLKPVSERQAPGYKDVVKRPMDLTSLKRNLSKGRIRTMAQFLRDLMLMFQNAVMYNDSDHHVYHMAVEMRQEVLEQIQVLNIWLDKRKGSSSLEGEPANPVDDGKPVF
Assay: Binding affinity to human partial length BRD8 bromodomain 1 (S700 to F854 residues) expressed in mammalian expression system by BROMOscan assay
pKd: −log10 of the molar value.
MEASUREMENT NAME: pKd

Task: Provide one value: measured pKd of COc1cc2c(cc1-c1c(C)noc1C)[nH]c1nc(C)nc(-c3ccnc4ccccc34)c12
Result: < 5.40

###

Experiment: Volume of distribution at steady state in Sprague-Dawley rat at 5 mg/kg, iv by LC/MS method
Format: ADME, organism-based
Conditions: in vivo, read-out: Vdss
MEASUREMENT NAME: Vd

Task: State its Vd: COc1cc2c(cc1-c1c(C)noc1C)[nH]c1nc(C)nc(-c3ccnc4ccccc34)c12
Result: 2 L/kg

# credit: ChEMBL document CHEMBL4184143
